- measurement_notes: log P determination by HPLC on reverse-phase column (EEC Directive 79/831 Annex V.A8)
- Type: physicochemical
- condition_context: HPLC on reverse-phase column
- Description: The log P values stated in the foregoing tables and preparation examples are determined in accordance with EEC Directive 79/831 Annex V.A8 by means of HPLC (High Performance Liquid Chromatography) on a reverse-phase column (C 18). Temperature: 43° C. […] Calibration is with unbranched alkan-2-ones (having 3 to 16 carbon atoms) of known log P value (log P values determined from the retention times by linear interpolation between two successive alkanones).
logP for assorted compounds
I only need the number, thanks.

# example entries with known answers
Cc1cc(Cl)cc(C(=O)NC(C)(C)C[S+](C)[O-])c1NC(=O)c1cc(Cn2cc(Br)c(C(F)(F)F)n2)nn1-c1ncccc1Cl (stereo not drawn) [I-1-128] : 3.25
CNC(=O)c1cc(Cl)cc(C)c1NC(=O)c1cc(Cn2cc(C(F)(F)C(F)(F)F)c(C(F)(F)C(F)(F)F)n2)nn1-c1ncccc1Cl : 4.39

Moving on to the next compound.
Item under review: `CNC(=O)c1cc(Cl)cc(C)c1NC(=O)c1cc(Cn2nc(C(F)(F)F)n(C)c2=O)nn1-c1ncccc1Cl` . Reported logP?
2.44

---

- measurement_notes: log P determination by HPLC on reverse-phase column (EEC Directive 79/831 Annex V.A8)
- Format: physicochemical
measure: logP
I only need the number, thanks.

CSC[C@H](C)NC(=O)c1cc(Cl)cc(C)c1NC(=O)c1cc(Cn2cnc(-c3ccc(Cl)nc3)n2)nn1-c1ncccc1Cl : 3.78
Cc1cc(I)cc(C(=O)NCC2CC2)c1NC(=O)c1cc(Cn2nc(C(F)(F)F)cc2C(F)(F)F)nn1-c1ncccc1Cl : 4.34
CNC(=O)c1cc(Cl)cc(Cl)c1NC(=O)c1cc(Cn2cc(C(F)(F)C(F)(F)F)c(C(F)(F)C(F)(F)F)n2)nn1-c1ncccc1Cl : 3.59

Item under review: Cc1cc(Cl)cc(C(=O)NCC#N)c1NC(=O)c1cc(Cn2cnc(C(F)(F)C(F)(F)F)n2)nn1-c1ncccc1Cl [I-1-332] . Reported logP?
2.59

Item under review: Cc1cc(C#N)cc(C(N)=O)c1NC(=O)c1cc(Cn2cnc(C(F)(F)C(F)(F)F)n2)nn1-c1ncccc1Cl [I-1-350] . Reported logP?
1.75

Item under review: `CC(C)NC(=O)c1cc(Cl)cc(Cl)c1NC(=O)c1cc(Cn2cc(C(F)(F)C(F)(F)F)c(C(F)(F)C(F)(F)F)n2)nn1-c1ncccc1Cl` . Reported logP?
4.00

---

- measurement_notes: log P determination by HPLC on reverse-phase column (EEC Directive 79/831 Annex V.A8)
- Format: physicochemical
measure: logP
I only need the number, thanks.

# example entries with known answers
Cc1cc(I)cc(C(=O)NCC#N)c1NC(=O)c1cc(Cn2nc(C(F)(F)F)nc2C(F)(F)F)nn1-c1ncccc1Cl [I-1-245] : 3.53
O=C(NC1CC1)c1cc(Cl)cc(Cl)c1NC(=O)c1cc(Cn2nc(C(F)F)c([N+](=O)[O-])c2C(F)F)nn1-c1ncccc1Cl [I-1-261] : 3.08
CNC(=O)c1cc(I)cc(C)c1NC(=O)c1cc(Cn2ccc(C(F)(F)F)n2)nn1-c1ncccc1Cl [I-1-247] : 3.05
Cc1cc(I)cc(C(N)=O)c1NC(=O)c1cc(Cn2ccc(C(F)(F)F)n2)nn1-c1ncccc1Cl [I-1-273] : 2.84
Cc1cc(I)cc(C(=O)NC2CC2)c1NC(=O)c1cc(Cn2nc(C(F)(F)F)cc2C(F)(F)F)nn1-c1ncccc1Cl [I-1-231] : 4.01
CNC(=O)c1cc(I)cc(C)c1NC(=O)c1cc(Cn2cc(Cl)c(C(F)(F)C(F)(F)F)n2)nn1-c1ncccc1Cl [I-1-243] : 3.96

Item under review: Cc1cc(Cl)cc(C(=O)NC(C)C)c1NC(=O)c1cc(Cn2cnc(C(C)(C)C)n2)nn1-c1ncccc1Cl [I-1-161] . Reported logP?
2.87

Item under review: CC(C)NC(=O)c1cc(Cl)cc(Cl)c1NC(=O)c1cc(Cn2nc(C(F)(F)F)cc2C(F)(F)F)nn1-c1ncccc1Cl [I-1-305] . Reported logP?
3.40

Item under review: Cc1cc(C#N)cc(C(=O)NC2CC2)c1NC(=O)c1cc(Cn2nc(C(F)(F)F)cc2C(F)(F)F)nn1-c1ncccc1Cl [I-1-188] . Reported logP?
3.56

Item under review: NC(=O)c1cc(Cl)cc(Cl)c1NC(=O)c1cc(Cn2cnc(C(F)(F)C(F)(F)F)n2)nn1-c1ncccc1Cl [I-1-336] . Reported logP?
2.32

Item under review: N#CCNC(=O)c1cc(Cl)cc(Cl)c1NC(=O)c1cc(Cn2cnc(C(F)(F)C(F)(F)F)n2)nn1-c1ncccc1Cl [I-1-349] . Reported logP?
2.19

Item under review: CSc1ncn(Cc2cc(C(=O)Nc3c(C)cc(Cl)cc3C(=O)NC3CC3)n(-c3ncccc3Cl)n2)n1 [I-1-263] . Reported logP?
2.13

Item under review: CSC[C@H](C)NC(=O)c1cc(Cl)cc(C)c1NC(=O)c1cc(Cn2nnc(-c3cc(Cl)nc(Cl)c3)n2)nn1-c1ncccc1Cl [I-1-157] . Reported logP?
4.36

Item under review: Cc1cc(Cl)cc(C(=O)NC(C)C[S+](C)[O-])c1NC(=O)c1cc(Cn2cc(Cl)c(C(F)(F)C(F)(F)F)n2)nn1-c1ncccc1Cl (centres unmarked) [I-1-212] . Reported logP?
3.25
